measurement description: Emitted dose and fine particle mass by Anderson Cascade Impactor stack
Format: physicochemical
measurement parameters: salmeterol xinafoate in HFA 134a, 25 μg per actuation, 10% w/w surfactant compound, aluminum canisters; beginning of use; mean of two determinations
Protocol: Data were obtained at the beginning of use of the device. Salmeterol xinafoate formulations in HFA 134a, of strength 25 μg per actuation, and 10% w/w (relative to drug) of the relevant surfactant compound of formula (I) were prepared in standard aluminum canisters. Control 1 was prepared at the same time as samples containing examples 2, 5, 6 and 7 whereas control 2 was prepared separately. The analysis of aerosol formulations using such stacks is well known to person skilled in the art. […]
quantity kind: Total Dose Emitted (µg)

# chem smiles, quantity kind, endpoint unit, assay value
rows = [
    ("COCCOCCOCCOCCOCCOCCOCC(=O)O", "Total Dose Emitted", "µg", 22.4),
    ("COCCOCCOCCOCCOCCOCCOCCOCCOCCOCC(=O)O", "Total Dose Emitted", "µg", 21.9),
    ("O=C(O)COCCOCCOCC(F)(F)F", "Total Dose Emitted", "µg", 21.4),
    ("O=C(O)COCCOCCOCCOCCOCCOCCOCC(F)(F)F", "Total Dose Emitted", "µg", 23.0),
]
